targetOrTestSystem: T1, AFP158/HLA-A*02:01 complex (human)
T1 construct: flowed over the chip in SPR; also called AFP158 pro
procedureText: SPR, KD ratio to AS170036 VL1VH1;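 also: crude scFv captured on a sensor chip, peptide–HLA complex passed over at several concentrations, association then buffer dissociation, KD derived from on- and off-rates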
Would you mind labelling by Affinity increase? At or over 0.5 fold is Criterion met, under is Criterion not met.

Please review the entries below; each comes with its answer.
| binder | qualitativeLabel |
| --- | --- |
| LY34S (scFv, AS170036 VL1VH1 scFv mutein) scFv: QSALTQPRSVSGSPGQSVTISCAGTSSDVGSENSVSWYQQHPGKAPKLMIYQVNKRASGVPDRFSGSKSGNTASLTISGLQAEDEADYYCASYRSSDHNIVFGGGTKLTVLGGGGSGGGGSGGGGSEVQLVESGGGLVQPGGSLRLSCAASGFTFSSYAMSWVRQAPGKGLEWVSTINSGTGSPYYADSVKGRFTISRDNSKNTLYLQMNSLRAEDTAVYYCAKNFFDGSWFLGPPAMDYWGQGTLVTVSSHHHHHH | Criterion not met |
| LH98P (scFv, AS170036 VL1VH1 scFv mutein; also called AS170036 VL1VH1-VLH98P) scFv: QSALTQPRSVSGSPGQSVTISCAGTSSDVGSENYVSWYQQHPGKAPKLMIYQVNKRASGVPDRFSGSKSGNTASLTISGLQAEDEADYYCASYRSSDPNIVFGGGTKLTVLGGGGSGGGGSGGGGSEVQLVESGGGLVQPGGSLRLSCAASGFTFSSYAMSWVRQAPGKGLEWVSTINSGTGSPYYADSVKGRFTISRDNSKNTLYLQMNSLRAEDTAVYYCAKNFFDGSWFLGPPAMDYWGQGTLVTVSSHHHHHH | Criterion met |
| LY34E (scFv, AS170036 VL1VH1 scFv mutein) scFv: QSALTQPRSVSGSPGQSVTISCAGTSSDVGSENEVSWYQQHPGKAPKLMIYQVNKRASGVPDRFSGSKSGNTASLTISGLQAEDEADYYCASYRSSDHNIVFGGGTKLTVLGGGGSGGGGSGGGGSEVQLVESGGGLVQPGGSLRLSCAASGFTFSSYAMSWVRQAPGKGLEWVSTINSGTGSPYYADSVKGRFTISRDNSKNTLYLQMNSLRAEDTAVYYCAKNFFDGSWFLGPPAMDYWGQGTLVTVSSHHHHHH | Criterion not met |
| LH98Q (scFv, AS170036 VL1VH1 scFv mutein; also called AS170036 VL1VH1-VLH98Q) scFv: QSALTQPRSVSGSPGQSVTISCAGTSSDVGSENYVSWYQQHPGKAPKLMIYQVNKRASGVPDRFSGSKSGNTASLTISGLQAEDEADYYCASYRSSDQNIVFGGGTKLTVLGGGGSGGGGSGGGGSEVQLVESGGGLVQPGGSLRLSCAASGFTFSSYAMSWVRQAPGKGLEWVSTINSGTGSPYYADSVKGRFTISRDNSKNTLYLQMNSLRAEDTAVYYCAKNFFDGSWFLGPPAMDYWGQGTLVTVSSHHHHHH | Criterion met |
| LY93F (scFv, AS170036 VL1VH1 scFv mutein) scFv: QSALTQPRSVSGSPGQSVTISCAGTSSDVGSENYVSWYQQHPGKAPKLMIYQVNKRASGVPDRFSGSKSGNTASLTISGLQAEDEADYYCASFRSSDHNIVFGGGTKLTVLGGGGSGGGGSGGGGSEVQLVESGGGLVQPGGSLRLSCAASGFTFSSYAMSWVRQAPGKGLEWVSTINSGTGSPYYADSVKGRFTISRDNSKNTLYLQMNSLRAEDTAVYYCAKNFFDGSWFLGPPAMDYWGQGTLVTVSSHHHHHH | Criterion met |
| LY34D (scFv, AS170036 VL1VH1 scFv mutein) scFv: QSALTQPRSVSGSPGQSVTISCAGTSSDVGSENDVSWYQQHPGKAPKLMIYQVNKRASGVPDRFSGSKSGNTASLTISGLQAEDEADYYCASYRSSDHNIVFGGGTKLTVLGGGGSGGGGSGGGGSEVQLVESGGGLVQPGGSLRLSCAASGFTFSSYAMSWVRQAPGKGLEWVSTINSGTGSPYYADSVKGRFTISRDNSKNTLYLQMNSLRAEDTAVYYCAKNFFDGSWFLGPPAMDYWGQGTLVTVSSHHHHHH | Criterion not met |

Lab note: next binder to report on.
Task: Affinity increase >= 0.5 fold for LY93N (scFv, AS170036 VL1VH1 scFv mutein) scFv: QSALTQPRSVSGSPGQSVTISCAGTSSDVGSENYVSWYQQHPGKAPKLMIYQVNKRASGVPDRFSGSKSGNTASLTISGLQAEDEADYYCASNRSSDHNIVFGGGTKLTVLGGGGSGGGGSGGGGSEVQLVESGGGLVQPGGSLRLSCAASGFTFSSYAMSWVRQAPGKGLEWVSTINSGTGSPYYADSVKGRFTISRDNSKNTLYLQMNSLRAEDTAVYYCAKNFFDGSWFLGPPAMDYWGQGTLVTVSSHHHHHH ?
Result: Criterion not met
